# measured_on: 5-hydroxytryptamine receptor 2A (Homo sapiens)
# experimental_details: 5-hydroxytryptamine receptor 2A (HTR2A) small molecule agonists, cell-based qHTS assay (AID 1963587); further: nearly all actives have a fitted effect of over 30% in size
# condition_set: HTR2A-CHO cells, calcium flux fluorescence, agonist mode; series mostly up to 76.8 µM
Results filed as inconclusive are left out. The source made the active and inactive calls. The call rests on the fitted dose curve.
Your reply should match one of these outcome classes. active, inactive

{"molecule": "O=C(N[C@H]1N=C(c2ccccc2F)c2cccc3c2N(CC3)C1=O)c1cc2ccccc2[nH]1", "cat": "inactive"}

I'd appreciate the recorded outcome for O=NN(CCO)CCO from this test. inactive

I'd appreciate the recorded outcome for CCOP(=O)(N=C1SCCS1)OCC from this test. inactive

I'd appreciate the recorded outcome for Cc1nc2ccccc2c(=O)n1-c1ccccc1Cl from this test. inactive

I'd appreciate the recorded outcome for CCN1CCCC1CNC(=O)C(O)(c1ccccc1)c1ccccc1 (stereo not given) from this test. active

* * *

# measured_on: D(2) dopamine receptor (Homo sapiens) (UniProt P14416)
# Sequence (P14416 whole entry, looked up): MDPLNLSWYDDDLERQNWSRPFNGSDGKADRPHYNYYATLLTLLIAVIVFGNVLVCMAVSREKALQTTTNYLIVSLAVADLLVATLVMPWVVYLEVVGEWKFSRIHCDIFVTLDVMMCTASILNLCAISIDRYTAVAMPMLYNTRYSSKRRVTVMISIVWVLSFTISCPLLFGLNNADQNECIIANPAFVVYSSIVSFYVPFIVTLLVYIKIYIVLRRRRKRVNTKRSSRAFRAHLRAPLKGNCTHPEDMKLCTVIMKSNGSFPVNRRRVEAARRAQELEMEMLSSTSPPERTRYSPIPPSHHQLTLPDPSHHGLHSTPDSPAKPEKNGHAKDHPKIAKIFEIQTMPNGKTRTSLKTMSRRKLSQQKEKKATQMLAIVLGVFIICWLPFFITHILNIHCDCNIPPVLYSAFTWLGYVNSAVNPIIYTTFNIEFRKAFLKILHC
# experimental_details: Dopamine D2 receptor (DRD2) small molecule antagonists, cell-based qHTS assay (AID 1963595)
# condition_set: HEK293-DRD2 cAMP HTRF antagonist mode; series mostly up to 92.4 µM
Inconclusive results are not listed. The source made the active and inactive calls. Calls come from the whole dose curve; as a rule, active = well fitted inhibition curve with a large enough effect in the signal ratio in the repeat runs, with a control signal flat; inconclusive = weak or mixed curves, or effect the other way; inactive = flat fitted curve, though single readings scatter; the % refers to the signal ratio.
Your reply should match one of these outcome classes. T for active, F for inactive

See these solved cases before continuing.
{"compound": "COP(N)(=S)Oc1ccccc1C(=O)OC(C)C (configuration not stated)", "cat": "F"}
{"compound": "CN[C@@H](C)[C@H](O)c1ccccc1", "cat": "F"}
{"compound": "O=C1NCN(c2ccccc2)C12CCN(CC1COc3ccccc3O1)CC2 (configuration not stated)", "cat": "T"}
{"compound": "O=[N+]([O-])c1ccc2c3c(cccc13)CC2", "cat": "F"}
{"compound": "COc1ccc2c(c1OC)CN1CCc3cc4c(cc3C1C2)OCO4 (configuration not stated)", "cat": "F"}

I'd appreciate the recorded outcome for N#CC(O)c1ccccc1 (configuration not stated) from this test. F

I'd appreciate the recorded outcome for C[C@H]1CNCCc2ccc(Cl)cc21 from this test. F

I'd appreciate the recorded outcome for C=CCC1=C(C)C(OC(=O)C2C(C=C(C)C)C2(C)C)CC1=O (configuration not stated) from this test. T

I'd appreciate the recorded outcome for COP(=O)(OC)O/C(=C\Cl)c1cc(Cl)c(Cl)cc1Cl from this test. F

I'd appreciate the recorded outcome for COC(=O)C(C)N(C(=O)Cc1ccccc1)c1c(C)cccc1C (configuration not stated) from this test. F

I'd appreciate the recorded outcome for CC(C)C(Nc1ccc(C(F)(F)F)cc1Cl)C(=O)OC(C#N)c1cccc(Oc2ccccc2)c1 (configuration not stated) from this test. F

I'd appreciate the recorded outcome for O=C(Cc1ccccc1)OCCc1ccccc1 from this test. F

* * *

# experimental_details: Nuclear factor erythroid 2-related factor 2/antioxidant responsive element (Nrf2/ARE) small molecule agonists: qHTS cell viability counter screen in human keratinocytes (AID 1919968); further: on the % scale 0 is the no-effect control and ±100 the full control effect; nearly all actives have a fitted effect of over 55% in size
# condition_set: KeratinoSens HaCaT ARE cells viability, CellTiter-Fluor, 24 h; series mostly up to 92.4 µM
# Source text: U.S. Tox21 Program National Center for Advancing Translational Sciences [NCATS] Division of Preclinical Innovation [DPI] U.S. Environmental Protection Agency [EPA] National Institutes of Environmental Health Sciences [NIEHS] National Toxicology Program [NTP] U.S. Food and Drug Administration [FDA] […] The activation of the report gene under culture conditions can be detected by ONE-Glo Luciferase Assay System (Promega, Madison, WI). […]
Records with an inconclusive call do not appear. Active and inactive are the calls of the source. Calls come from the whole dose curve; as a rule, active = well fitted cell-killing curve with a large enough effect in the repeat runs; inconclusive = weak or mixed curves, or effect the other way; inactive = flat fitted curve, though single readings scatter.
Your reply should match one of these outcome classes. active, inactive

See these solved cases before continuing.
{"compound": "CCC1COC(Cn2cncn2)(c2ccc(Cl)cc2Cl)O1 (stereo not drawn)", "cat": "inactive"}
{"compound": "C=CC(=O)NCNC(=O)C=C", "cat": "inactive"}
{"compound": "O=C1OC(CCN2CCCCC2)OC1(c1ccccc1)c1ccccc1 (stereo not drawn)", "cat": "inactive"}

I'd appreciate the recorded outcome for Nc1ccc([N+](=O)[O-])cc1[N+](=O)[O-] from this test. inactive

I'd appreciate the recorded outcome for CCCOC(=O)Cc1ccc(OCC(=O)N(CC)CC)c(OC)c1 from this test. inactive

I'd appreciate the recorded outcome for CCCCNP(N)(N)=S from this test. inactive

* * *

# experimental_details: G protein-coupled receptor (GPCR) small molecule agonists, calcium flux assay: HEK293 wild type cell line counter screen (AID 1920065); further: on the % scale 0 is the no-effect control and ±100 the full control effect
# condition_set: HEK293 WT calcium flux, fluorescence, agonist mode; series mostly up to 57.6 µM
Active and inactive are the calls of the source. Calls come from the whole dose curve.
readout_name: activation

Recorded activation, per entry:
{"compound": "CCC[CH2][Sn]([CH2]CCC)([CH2]CCC)[O]C(=O)c1ccccc1", "measured": "inactive"}
{"compound": "COc1cc(CC(C)N)c(OC)cc1Br (stereo unspecified)", "measured": "inactive"}
{"compound": "Cc1ccc2c(c1)C1CN(C)CCC1N2 (stereo unspecified)", "measured": "-0.508% [at 11.8 µM] (inactive)"}
{"compound": "C[C@]12Cc3nonc3C[C@@H]1CC[C@@H]1[C@@H]2CC[C@@]2(C)[C@H]1CC[C@]2(C)O", "measured": "inactive"}
{"compound": "COCC(C)N(C(=O)CCl)c1c(C)csc1C (stereo unspecified)", "measured": "inactive"}

Please examine the following record next.
Need activation, item C[C@H](CN1CCOCC1)C(C(=O)N1CCCC1)(c1ccccc1)c1ccccc1 inactive

* * *

# experimental_details: p53 small molecule agonists, cell-based qHTS assay with human liver microsomes: qHTS cell viability counter screen (AID 1963579); further: on the % scale 0 is the no-effect control and ±100 the full control effect; nearly all actives have a fitted effect of over 45% in size
# condition_set: p53RE-bla HCT-116 viability, ATP luminescence, 16 h, HLM; series mostly up to 66 µM
# Text: National Center for Advancing Translational Sciences [NCATS] Division of Preclinical Innovation [DPI] U.S. Environmental Protection Agency [EPA] National Institutes of Environmental Health Sciences [NIEHS] National Toxicology Program [NTP] U.S. Food and Drug Administration [FDA] p53, a tumor suppressor protein, is activated following cellular insult, including DNA damage and other cellular stresses. […] The activation of the reporter gene under culture conditions can be detected by fluorescence intensity. […]
Records with an inconclusive call do not appear. The source made the active and inactive calls. Calls come from the whole dose curve.
Your reply should match one of these outcome classes. 1.0 (active), 0.0 (inactive)

I'd appreciate the recorded outcome for CC(C)(C)N(NC(=O)c1ccc(Cl)cc1)C(=O)c1ccccc1 from this test. 0.0

I'd appreciate the recorded outcome for Nc1nc(N)c(N)c(N)n1 from this test. 0.0

I'd appreciate the recorded outcome for CCSC(=O)N(CC)C1CCCCC1 from this test. 0.0

I'd appreciate the recorded outcome for CC(C1CC1)C(O)(Cn1cncn1)c1ccc(Cl)cc1 (stereo not given) from this test. 0.0

I'd appreciate the recorded outcome for CN/C(=N\[N+](=O)[O-])NCc1cnc(Cl)s1 from this test. 0.0

I'd appreciate the recorded outcome for NC1CCC(CC2CCC(N)CC2)CC1 (stereo not given) from this test. 0.0

I'd appreciate the recorded outcome for O=[N+]([O-])c1ccccc1CCl from this test. 0.0

I'd appreciate the recorded outcome for CCCCN(CCCC)C(=S)[S-].CCCCN(CCCC)C(=S)[S-].[Zn+2] from this test. 0.0

I'd appreciate the recorded outcome for C[C@]12CC[C@H]3[C@@H](CCC4=CC(=O)CC[C@@]43C)[C@@H]1CC[C@@H]2O from this test. 0.0

* * *

# experimental_details: p53 small molecule agonists, cell-based qHTS assay (AID 1963582); on activation: on the % scale 0 is the no-effect control and ±100 the full control effect
# condition_set: HCT-116 p53RE-bla reporter, beta-lactamase FRET ratio, 16 h; series mostly up to 66 µM
Inconclusive results are not listed. The source made the active and inactive calls. Calls come from the whole dose curve; as a rule, active = well fitted activation curve with a large enough effect in the signal ratio in the repeat runs (not every such curve was filed as active); inconclusive = weak or mixed curves; inactive = flat fitted curve, though single readings scatter; the % refers to the signal ratio.
Your reply should match one of these outcome classes. 1 (yes) (active), 0 (no) (inactive)

{"compound": "CC1=C(C(=O)Nc2ccccc2)S(=O)(=O)CCO1", "cat": "1 (yes)"}

I'd appreciate the recorded outcome for COc1cc(OC)nc(NC(=O)NS(=O)(=O)c2ncccc2OCC(F)(F)F)n1 from this test. 0 (no)

I'd appreciate the recorded outcome for CCOC(=O)c1ncn2c1CN(C)C(=O)c1c(I)cccc1-2 from this test. 0 (no)

I'd appreciate the recorded outcome for CCOc1cc(OP(=S)(OC)OC)nc(CC)n1 from this test. 0 (no)

I'd appreciate the recorded outcome for CC(C)NCC(O)c1ccccc1Cl (stereo unspecified) from this test. 0 (no)

* * *

# measured_on: 5-hydroxytryptamine receptor 2A (Homo sapiens)
# experimental_details: 5-hydroxytryptamine receptor 2A (HTR2A) small molecule antagonists, cell-based qHTS assay (AID 1963586); further: on the % scale 0 is the no-effect control and ±100 the full control effect; nearly all actives have a fitted effect of over 45% in size
# condition_set: HTR2A-CHO cells, DOI-induced calcium flux, fluorescence; series mostly up to 61.5 µM
Inconclusive results are not listed. The source made the active and inactive calls. Calls follow the shape of the full dose curve.
readout_name: activity, negative = inhibition

Recorded activity, negative = inhibition, per entry:
{"compound": "C[CH2][Hg][N]1C(=O)C2C(C1=O)C1(Cl)C(Cl)=C(Cl)C2(Cl)C1(Cl)Cl (stereo not given)", "measured_on": "5-hydroxytryptamine receptor 2A (Homo sapiens)", "readout_name": "activity, negative = inhibition", "measured": "14.2% [at 12.7 µM] (inactive)"}
{"compound": "Cc1ccc2nc3sc(=O)sc3nc2c1", "measured_on": "5-hydroxytryptamine receptor 2A (Homo sapiens)", "readout_name": "activity, negative = inhibition", "measured": "8.83% [at 12.7 µM] (inactive)"}
{"compound": "Nc1c(Br)cc(Br)c2c1C(=O)c1ccccc1C2=O", "measured_on": "5-hydroxytryptamine receptor 2A (Homo sapiens)", "readout_name": "activity, negative = inhibition", "measured": "6.3% [at 12.7 µM] (inactive)"}
{"compound": "CC(=O)[O-].CC(=O)[O-].CC(=O)[O-].[Sb+3]", "measured_on": "5-hydroxytryptamine receptor 2A (Homo sapiens)", "readout_name": "activity, negative = inhibition", "measured": "0.713% [at 2.12 µM] (inactive)"}

Please examine the following record next.
Need activity, negative = inhibition, item Clc1c(Cl)c(Cl)c(Cl)c(Cl)c1Cl 3.79% [at 5.62 µM] (inactive)
